Assay: chemical genetic growth profiling, strain panel (AID 1159580);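 also: tested at 20 µM; growth read once vehicle control cultures reached saturation at 30 °C; 1 = growth at the plate median or of vehicle wells; lower values mean less growth of the strain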
Conditions: S. cerevisiae deletion strains, growth OD, locus YKR026C, strain gcn3, active compounds read low
The campaign covered roughly 5,500 compounds. About 2,000 (36%) were called active. Roughly 18% stayed inconclusive and do not appear here. This is one part of the list.

molecule: CCn1nc(C(=O)O)c(=O)c2cc3c(cc21)OCO3
normalized growth: 0.993

molecule: CC1CCCC(C)N1NC(=O)c1ccc(Cl)c(S(N)(=O)=O)c1 (stereo not given)
normalized growth: 0.999

molecule: C=CCSCC=C
normalized growth: 0.989

molecule: C=CCSSSCC=C
normalized growth: 0.978

molecule: CC1(C)O[C@@H]2CC3C4C[C@H](F)C5=CC(=O)CC[C@]5(C)C4[C@@H](O)C[C@]3(C)[C@]2(C(=O)CO)O1 (stereo not given in full)
normalized growth: 1

---

Test: chemical genetic growth profiling, strain panel (AID 1159580);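 also: tested at 20 µM; growth read once vehicle control cultures reached saturation at 30 °C; 1 = growth at the plate median or of vehicle wells; lower values mean less growth of the strain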
Conditions: S. cerevisiae deletion strains, growth OD, locus YDR162C, strain NBP2, active compounds read low
Hit rate of the full screen: of about 5,500 compounds, about 2,000 (36%) were called active. Another 18% or so got no clear call; they are omitted. This is one part of the list.
normalized growth values by entry
result-type: normalized growth

compound: CCn1nc(C(=O)O)c(=O)c2cc3c(cc21)OCO3
result-type: normalized growth
recorded-result: 1.01
--
compound: CC(=O)O[C@@H]1CC2C(C)(CC[C@H](O)C2(C)C)C2CC[C@]3(C)C(=CC(=O)O[C@H]3c3ccoc3)C21C (stereo partly specified)
result-type: normalized growth
recorded-result: 1
--
compound: CC1(C)[C@@H]2CC[C@@]1(C)C(=O)C2
result-type: normalized growth
recorded-result: 1.01
--
compound: CC1(C)C(=O)CC[C@@]2(C)C1C[C@@H](O)[C@@]1(C)C3=CC(=O)O[C@@H](c4ccoc4)[C@]3(C)CCC21 (stereo partly specified)
result-type: normalized growth
recorded-result: 1.01
--
compound: C[C@]12CCC(=O)C=C1CCc1ccc(O)cc12
result-type: normalized growth
recorded-result: 1.01
--
compound: COC1=CC(=O)C=C(OC)C1=O
result-type: normalized growth
recorded-result: 0.982

---

Assay: chemical genetic growth profiling, strain panel (AID 1159580);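 also: tested at 20 µM; growth read once vehicle control cultures reached saturation at 30 °C; 1 = growth at the plate median or of vehicle wells; lower values mean less growth of the strain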
Conditions: S. cerevisiae deletion strains, growth OD, locus YMR205C, strain PFK2 (second series), active compounds read low
Screen size: about 5,500 compounds; about 2,000 (36%) were called active. Another 18% or so got no clear call; they are omitted. This is one part of the list.
Binary call on normalized growth with cut-off 0.9: strictly below means met, and equality or higher means not met.

molecule: COc1ccccc1N1CCN(C(=O)C(C)c2ccc(CC(C)C)cc2)CC1 (stereo unspecified)
assigned-category: not met
//
molecule: N#Cc1nccnc1N1CCN(C(=O)Nc2cc(Cl)cc(Cl)c2)CC1
assigned-category: not met
//
molecule: N#C/C(N=Cc1cc(Cl)cc(Cl)c1O)=C(\C#N)N=Cc1cc(Cl)cc(Cl)c1O
assigned-category: met
//
molecule: O=C(NNc1cc(C(F)(F)F)cc(C(F)(F)F)c1)c1cnc2n(c1=O)CCS2
assigned-category: not met
//
molecule: O=C(Nc1ccccc1C(=O)O)OCC1c2ccccc2-c2ccccc21
assigned-category: met

---

Known normalized growth of a selection of compounds
Assay: chemical genetic growth profiling, strain panel (AID 1159580);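 also: tested at 20 µM; growth read once vehicle control cultures reached saturation at 30 °C; 1 = growth at the plate median or of vehicle wells; lower values mean less growth of the strain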
Details: S. cerevisiae deletion strains, growth OD, locus YER015W, strain faa2, active compounds read low
About 2,000 (36%) of roughly 5,500 compounds were called active. Inconclusive results (about 18%) are left out. This is one part of the list.

compound: C=CCSC[C@@H](N)C(=O)O
normalized growth: 0.992

compound: C=CCSSCC=C
normalized growth: 1.03

compound: CC(C)(C)NCC(O)COc1cccc2c1CCCC2=O (stereo not drawn)
normalized growth: 0.981
